Items are presented alongside their recorded Ki.
Target: DOR-1 (Mus musculus, UniProt P32300)
Construct: expressed in transfected cells; host or cells: CHO
Sequence (P32300 whole entry): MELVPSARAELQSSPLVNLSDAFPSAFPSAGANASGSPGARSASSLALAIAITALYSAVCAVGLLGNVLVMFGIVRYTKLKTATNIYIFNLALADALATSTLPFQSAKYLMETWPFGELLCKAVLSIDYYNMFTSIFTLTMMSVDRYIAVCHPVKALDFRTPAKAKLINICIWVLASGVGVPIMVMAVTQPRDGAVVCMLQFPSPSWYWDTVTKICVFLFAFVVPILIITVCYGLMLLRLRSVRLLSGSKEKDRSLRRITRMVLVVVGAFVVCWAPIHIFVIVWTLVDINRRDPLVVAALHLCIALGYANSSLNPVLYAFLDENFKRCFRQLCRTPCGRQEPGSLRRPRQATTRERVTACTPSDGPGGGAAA
Experiment: Competition binding against 125I-IBNtxA in DOR-1/CHO membranes
Conditions: 125I-IBNtxA (0.1 nM), CHO membranes, cloned mouse receptor; read-out: Affinity (Ki nM) DOR-1
OBSERVED PROPERTY: Ki (nM)

COMPOUND: CC[C@@H]1CN2CCc3c([nH]c4ccc(-c5ccccc5)c(OC)c34)C2C[C@@H]1/C(=C\OC)C(=O)OC (stereo partly drawn)
CENSOR SYMBOL: >
QUANTITATIVE RESULT: 1000
--
COMPOUND: CC[C@@H]1CN2CCC3(Nc4ccc(Cl)c(OC)c4C3=O)C2C[C@@H]1/C(=C\OC)C(=O)OC (stereo partly drawn)
CENSOR SYMBOL: =
QUANTITATIVE RESULT: 2.1
--
COMPOUND: CC[C@@H]1CN2CC[C@]3(Nc4cccc(-c5ccccc5)c4C3=O)C2C[C@@H]1/C(=C\OC)C(=O)OC (stereo partly drawn)
CENSOR SYMBOL: =
QUANTITATIVE RESULT: 0.8
--
COMPOUND: CC[C@@H]1CN2CC[C@]3(Nc4cccc(C#N)c4C3=O)C2C[C@@H]1/C(=C\OC)C(=O)OC (stereo partly drawn)
CENSOR SYMBOL: =
QUANTITATIVE RESULT: 2.4
--
COMPOUND: CC[C@@H]1CN2CC[C@]3(Nc4cccc(O)c4C3=O)C2C[C@@H]1/C(=C\OC)C(=O)OC (stereo partly drawn)
CENSOR SYMBOL: =
QUANTITATIVE RESULT: 6.1
--
COMPOUND: CC[C@@H]1CN2CCc3c(n(C)c4cccc(OC)c34)[C@@H]2C[C@@H]1/C(=C\OC)C(=O)OC
CENSOR SYMBOL: >
QUANTITATIVE RESULT: 1000
--
COMPOUND: CC[C@@H]1CN2CC[C@]3(Nc4ccccc4C3=O)C2C[C@@H]1/C(=C\OC)C(=O)OC (stereo partly drawn)
CENSOR SYMBOL: =
QUANTITATIVE RESULT: 2.9
--
COMPOUND: CC[C@@H]1CN2CCC3(Nc4c(-c5ccoc5)ccc(OC)c4C3=O)C2C[C@@H]1/C(=C\OC)C(=O)OC (stereo partly drawn)
CENSOR SYMBOL: =
QUANTITATIVE RESULT: 40
--
COMPOUND: CC[C@@H]1CN2CC[C@@]3(C(=O)c4c(OC)cccc4N3Cc3ccccc3)C2C[C@@H]1/C(=C\OC)C(=O)OC (stereo partly drawn)
CENSOR SYMBOL: =
QUANTITATIVE RESULT: 258
--
COMPOUND: CC[C@@H]1CN2CC[C@@]3(OC)C(=Nc4cccc(OC)c43)[C@@H]2C[C@@H]1/C(=C\OC)C(=O)OC
CENSOR SYMBOL: =
QUANTITATIVE RESULT: 997
--
COMPOUND: CC[C@@H]1CN2CCc3c([nH]c4ccc(Br)c(OC)c34)C2C[C@@H]1/C(=C\OC)C(=O)OC (stereo partly drawn)
CENSOR SYMBOL: =
QUANTITATIVE RESULT: 847
--
COMPOUND: CC[C@@H]1CN2CC[C@@]3(N4CCCCC4)C(=Nc4cccc(OC)c43)[C@@H]2C[C@@H]1/C(=C\OC)C(=O)OC
CENSOR SYMBOL: =
QUANTITATIVE RESULT: 369
--
COMPOUND: CC[C@@H]1CN2CC[C@@]3(C(=O)c4c(OC)cccc4N3C)C2C[C@@H]1/C(=C\OC)C(=O)OC (stereo partly drawn)
CENSOR SYMBOL: >
QUANTITATIVE RESULT: 1000
--
COMPOUND: CC[C@@H]1CN2CC[C@@]3(O)C(=Nc4ccc(-c5ccoc5)c(OC)c43)C2C[C@@H]1/C(=C\OC)C(=O)OC (stereo partly drawn)
CENSOR SYMBOL: =
QUANTITATIVE RESULT: 109
--
COMPOUND: CC[C@@H]1CN2CCc3c([nH]c4cccc(-c5ccoc5)c34)[C@@H]2C[C@@H]1/C(=C\OC)C(=O)OC
CENSOR SYMBOL: =
QUANTITATIVE RESULT: 332
--
COMPOUND: CC[C@@H]1CN2CCC3c4c(cccc4OC)NC3[C@@H]2C[C@@H]1/C(=C\OC)C(=O)OC (stereo partly drawn)
CENSOR SYMBOL: =
QUANTITATIVE RESULT: 374
--
COMPOUND: CC[C@@H]1CN2CC[C@@]3(O)C(=Nc4ccccc43)[C@@H]2C[C@@H]1/C(=C\OC)C(=O)OC
CENSOR SYMBOL: =
QUANTITATIVE RESULT: 147
--
COMPOUND: COC(=O)CC1CCN2CC[C@@]3(O)C(=Nc4cccc(OC)c43)C2C1 (stereo partly drawn)
CENSOR SYMBOL: >
QUANTITATIVE RESULT: 1000
--
COMPOUND: CC[C@@H]1CN2CC[C@@]3(O)C(=Nc4c(-c5ccoc5)ccc(OC)c43)C2C[C@@H]1/C(=C\OC)C(=O)OC (stereo partly drawn)
CENSOR SYMBOL: >
QUANTITATIVE RESULT: 1000
--
COMPOUND: CC[C@@H]1CN2CCc3c([nH]c4cccc(O)c34)[C@@H]2C[C@@H]1/C(=C\OC)C(=O)OC
CENSOR SYMBOL: =
QUANTITATIVE RESULT: 532
--
COMPOUND: CC[C@@H]1CN2CCc3c([nH]c4c(-c5ccoc5)ccc(OC)c34)C2C[C@@H]1/C(=C\OC)C(=O)OC (stereo partly drawn)
CENSOR SYMBOL: =
QUANTITATIVE RESULT: 617
